- target: mAChR M4 (Homo sapiens)
- Construct: expressed in transfected cells; host or cells: CHO-K1 cells stably transfected with M4 cDNA and chimeric G-protein Gqi5
- Sequence (P08173 1-479): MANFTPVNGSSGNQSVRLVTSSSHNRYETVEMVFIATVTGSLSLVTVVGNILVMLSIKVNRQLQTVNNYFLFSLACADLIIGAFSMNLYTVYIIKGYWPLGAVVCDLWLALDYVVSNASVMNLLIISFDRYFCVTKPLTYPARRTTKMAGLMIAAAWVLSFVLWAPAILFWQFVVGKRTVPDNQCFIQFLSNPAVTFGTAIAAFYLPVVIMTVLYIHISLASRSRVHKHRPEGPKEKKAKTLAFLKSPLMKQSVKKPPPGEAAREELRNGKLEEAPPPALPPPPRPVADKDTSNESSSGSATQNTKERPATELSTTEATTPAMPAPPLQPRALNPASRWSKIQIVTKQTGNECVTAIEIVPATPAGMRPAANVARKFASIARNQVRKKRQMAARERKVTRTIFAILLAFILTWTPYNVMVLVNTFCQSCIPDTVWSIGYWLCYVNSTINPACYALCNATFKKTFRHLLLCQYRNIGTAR
- protocol notes: mAChR M4 cell-based functional assay (calcium mobilization, potentiation of EC20 acetylcholine response)
- applied conditions: mAChR M4 cell-based functional assay; >10,000 estimated for low potency compounds without plateau; read-out: EC50
Below: a set of entries, each annotated with reported EC50.
measurement name: EC50

[[record]]
compound = "Cc1nnc2sc(C(=O)N3CCCn4nccc43)c(N)c2c1C [Example B445]"
measurement_name = "EC50"
recorded_measurement = "> 10 µM"

[[record]]
compound = "Cc1nnc2sc(C(=O)NCCNS(=O)(=O)c3ccccc3)c(N)c2c1C [Example B360]"
measurement_name = "EC50"
recorded_measurement = "2.5 µM"

[[record]]
compound = "COc1cncc(-c2ccc(CNC(=O)c3sc4nnc(C)c(C)c4c3N)cc2)c1 [Example B488]"
measurement_name = "EC50"
recorded_measurement = "0.049 µM"

[[record]]
compound = "COc1ccc(C(=O)N2CC(NC(=O)c3sc4nnc(C)c(C)c4c3N)C2)cc1 [Example B400]"
measurement_name = "EC50"
recorded_measurement = "0.052 µM"

[[record]]
compound = "Cc1nnc2sc(C(=O)N3CC4CN(c5ccc(C#N)cn5)CC4C3)c(N)c2c1C (centres unmarked) [Example B438]"
measurement_name = "EC50"
recorded_measurement = "0.17 µM"


Just for reference, patent US9868746B2 is where these values come from.
